System: CCRF-CEM leukemia
Assay: NCI-60 one-dose screen, 48 h
Settings: 10 µM unless noted
Compounds without any hit were thinned out: in the full panel of roughly 83,000, 20% have a hit. Activity calls are given as the source filed them. How the source made its calls: active means growth percent below 10; inactive means the rest.
# valid calls are label 1 for active, label 0 for inactive; nothing else

COMPOUND | ASSIGNED_CLASS
COc1cccc(OC)c1C(=O)N[C@@H]1C(=O)N2[C@@H]1SC(C)(C)[C@@H]2C(=O)O | label 0
COc1ccc(S(=O)(=O)n2c3ccccc3n3ncc(-c4nnc(C)o4)c23)cc1 | label 0
CC(C)(C)NC(=O)C(OC(=O)c1cccc(Cl)c1)c1ccc(Cl)cc1 (stereo not given) | label 0
O=c1c2cc(F)ccc2sc2c(NCCCNCCO)nc3ccccc3c12 | label 1
c1ccc2c(c1)Nc1ccncc1S2 | label 0

q: Per the records of this test, what outcome belongs to `COc1ccc(/C=C(/C#N)n2nnc3cccc(F)c32)cc1` ?
a: label 0

q: Per the records of this test, what outcome belongs to `COc1nc2ccc(C)cc2cc1-c1nc2c(cnn2-c2ccc(Br)cc2)c(=O)[nH]1` ?
a: label 0

q: Per the records of this test, what outcome belongs to `CCOC(=O)c1cn2ncnc(Oc3ccc(NC(=O)NCCN(C)C)c(Cl)c3)c2c1C` ?
a: label 0

q: Per the records of this test, what outcome belongs to `Oc1ccc(-c2nc3ccc4[nH]ncc4c3c3c2CCCC3)c2cccnc12` ?
a: label 1

q: Per the records of this test, what outcome belongs to `Cc1ncc(C(=O)Nc2ccc(CN3CCN(C)CC3)c(C(F)(F)F)c2)cc1C#Cc1ccc(N)nc1` ?
a: label 0

q: Per the records of this test, what outcome belongs to `COc1nc2ccccc2cc1-c1nc2c(cnn2-c2ccccc2)c(=O)[nH]1` ?
a: label 0

q: Per the records of this test, what outcome belongs to COc1ccc(C2CC(c3ccc(Nc4nc(Nc5ccc(F)cc5)nc(Nc5ccc(Cl)cc5)n4)cc3)=NN2C(C)=O)cc1 (stereo not given) ?
a: label 0

q: Per the records of this test, what outcome belongs to `CCCCCCNC(=O)Oc1ccc(/C(=C(\C)c2ccc(Cl)cc2)c2ccc(OCCN(CC)CC)cc2)cc1` ?
a: label 0

q: Per the records of this test, what outcome belongs to `CCCCN(C)N=Nc1ccc(C(N)=O)cc1` ?
a: label 0

q: Per the records of this test, what outcome belongs to `O=C(Nc1ccc(F)cc1F)c1cc(F)ccc1O` ?
a: label 0

q: Per the records of this test, what outcome belongs to `Fc1cc2c(cc1Cl)N(c1ncnc3ccc(-c4cnc5cnccn45)cc13)CC2` ?
a: label 0

q: Per the records of this test, what outcome belongs to `CCCCn1c(=O)c(-c2cc(-c3ccc(Cl)cc3)nc(-c3ccc(Cl)cc3)c2)cc2cc(Cl)ccc21` ?
a: label 0

q: Per the records of this test, what outcome belongs to `O=C(O)CCC(=O)Nc1nnc(-c2ccccc2)s1` ?
a: label 0

q: Per the records of this test, what outcome belongs to CCOC(=O)C1=C(N)Oc2c(sc3c(C)cccc23)C1c1ccc(Cl)cc1 (stereo not given) ?
a: label 0

q: Per the records of this test, what outcome belongs to `O=C1c2cccc3cccc(c23)C(=O)N1N1C(=O)c2cccc3c(NC4CCCCC4)ccc(c23)C1=O` ?
a: label 0

q: Per the records of this test, what outcome belongs to `Cc1cc2nc3cc(C)c(N)cc3[n+](-c3ccccc3)c2cc1N` ?
a: label 0

q: Per the records of this test, what outcome belongs to `O=S(=O)(NCCCNc1cc(-c2c(-c3cccc(O)c3)nc3sccn23)ccn1)c1cccc2ccccc12` ?
a: label 0

q: Per the records of this test, what outcome belongs to CC1CN(C2CCCCC2)C(=S)N(c2ccccc2)C1=O (stereo not given) ?
a: label 0

q: Per the records of this test, what outcome belongs to `COc1nc2ccc(C)cc2cc1-c1nc2c(cnn2-c2ccccc2)c(=O)[nH]1` ?
a: label 0

q: Per the records of this test, what outcome belongs to `CN(C)CCNc1nc2ccccc2c2c(=O)c3cc(F)ccc3sc12` ?
a: label 0
